Hey, just so you know, these numbers are from patent US20230047413A1.

- assay system: T1, Peptide-2 (human, phosphothreonine 212, phosphothreonine 217 (tau 2N4R numbering); short chain biotin (SCBiot) and dPEG4 at the N-terminus; amide at the C-terminus)
- T1 construct: also called pT212/pT217-tau peptide (Peptide-2)
- T1 sequence (peptide, as listed by the source): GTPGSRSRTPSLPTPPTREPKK
- assay: SPR ProteOn, mAb captured, peptide as analyte
measurement label: kon (M⁻¹ s⁻¹)

[
  {
    "binder": "B280 (antibody, human IgG1, V domains shown, Humanized (HFA) PT3 variant, human IgG1/kappa; also called VH91/VL80) VH: EVQLLESGGGLVQPGGSLRLSCAASGFTFSSYAMSWVRQAPGKGLEWVSSISKGGNTYYADSVKGRFTISRDNSKNTLYLQMNSLRAEDTAVYYCAKGWGDYGWFAYWGQVTLVTVSS VL: DIVMTQTPLSSPVTLGQPASISCKASQDINRYLNWLQQRPGQPPRLLIYRANRLLDGVPDRFSGSGAGTDFTLKISRVEAEDVGVYYCLQYDEFPLTFGQGTKLEIK",
    "value": "4.71e+06"
  },
  {
    "binder": "B252 (antibody, human IgG1, V domains shown, Humanized (HFA) PT3 variant, human IgG1/kappa; also called VH93/VL80) VH: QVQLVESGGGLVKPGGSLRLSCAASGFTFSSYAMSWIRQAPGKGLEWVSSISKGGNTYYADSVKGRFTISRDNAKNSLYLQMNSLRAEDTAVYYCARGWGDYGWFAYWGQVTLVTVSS VL: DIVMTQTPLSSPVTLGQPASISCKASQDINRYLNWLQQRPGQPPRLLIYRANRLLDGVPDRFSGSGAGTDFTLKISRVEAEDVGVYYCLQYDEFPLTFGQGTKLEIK",
    "value": "5.75e+06"
  },
  {
    "binder": "B282 (antibody, human IgG1, V domains shown, Humanized (HFA) PT3 variant, human IgG1/kappa; also called VH93/VL77) VH: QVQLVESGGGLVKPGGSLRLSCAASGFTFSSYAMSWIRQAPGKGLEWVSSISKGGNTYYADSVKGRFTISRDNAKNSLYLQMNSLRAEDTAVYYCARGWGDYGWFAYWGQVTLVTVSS VL: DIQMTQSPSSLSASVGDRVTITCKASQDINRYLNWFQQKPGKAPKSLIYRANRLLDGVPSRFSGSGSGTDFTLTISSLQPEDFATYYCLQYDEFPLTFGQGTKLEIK",
    "value": "3.12e+06"
  },
  {
    "binder": "B234 (antibody, human IgG1, V domains shown, Mouse PT3 variable regions (VH10/VL7) with human IgG1/kappa constant region; also called mouse PT3, hIgG1) VH: EVKLVESGGDLVKPGGSLKLSCAASGFTFSSYAMSWVRQNPEKRLEWVASISKGGNTYYPNSVKGRFTISRDNARNILYLQMSSLRSEDTALYYCARGWGDYGWFAYWGQVTLVTVSA VL: DIKMTQSPSSMYASLGERVTITCKASQDINRYLNWFQQKPGKSPKTLIYRANRLLDGVPSRFSGSGSGQDYSLTISSLDYEDMGIYYCLQYDEFPLTFGDGTKLELK",
    "value": "9.35e+06"
  },
  {
    "binder": "B235 (antibody, human IgG1, V domains shown, Humanized (HFA) PT3 variant, human IgG1/kappa; also called VH91/VL77) VH: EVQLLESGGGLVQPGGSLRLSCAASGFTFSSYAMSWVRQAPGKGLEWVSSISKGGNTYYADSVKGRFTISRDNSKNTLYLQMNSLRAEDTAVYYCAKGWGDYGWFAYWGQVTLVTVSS VL: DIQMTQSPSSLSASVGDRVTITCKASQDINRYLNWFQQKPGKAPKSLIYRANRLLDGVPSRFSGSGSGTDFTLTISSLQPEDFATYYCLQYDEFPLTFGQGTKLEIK",
    "value": "3.21e+06"
  },
  {
    "binder": "B296 (antibody, human IgG1, kappa, V domains shown, Humanized PT3, human IgG1/kappa; also called VH92/VL77; HFA-PT3) VH: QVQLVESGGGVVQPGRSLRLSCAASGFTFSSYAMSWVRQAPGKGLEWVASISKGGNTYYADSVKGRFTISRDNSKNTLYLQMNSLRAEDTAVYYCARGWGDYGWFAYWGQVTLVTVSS VL: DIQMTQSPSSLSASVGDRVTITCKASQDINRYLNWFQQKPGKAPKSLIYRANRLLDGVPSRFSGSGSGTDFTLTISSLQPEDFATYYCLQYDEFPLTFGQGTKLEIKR",
    "value": "5e+06"
  }
]
